- TEST_TARGET: β-adrenergic receptors (guinea pig right atria) (Cavia porcellus)
- Construct: Atria were allowed to beat spontaneously under a loading tension; from tissue; host or cells: guinea pig right atria (isolated, spontaneously beating)
- Sequence (H0W3H1 1-470): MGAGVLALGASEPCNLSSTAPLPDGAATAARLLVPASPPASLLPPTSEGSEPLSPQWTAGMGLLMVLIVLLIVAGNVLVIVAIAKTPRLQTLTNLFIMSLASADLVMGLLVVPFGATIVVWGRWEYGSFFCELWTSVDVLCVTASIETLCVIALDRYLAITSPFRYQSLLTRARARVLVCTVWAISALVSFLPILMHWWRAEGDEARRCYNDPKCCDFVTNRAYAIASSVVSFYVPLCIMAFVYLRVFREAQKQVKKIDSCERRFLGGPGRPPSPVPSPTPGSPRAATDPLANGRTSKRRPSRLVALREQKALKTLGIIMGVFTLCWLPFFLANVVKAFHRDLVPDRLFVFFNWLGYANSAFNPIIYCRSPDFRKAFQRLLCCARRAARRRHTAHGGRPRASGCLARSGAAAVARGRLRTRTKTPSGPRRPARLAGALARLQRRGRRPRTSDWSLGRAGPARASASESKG
- METHOD_DESCRIPTION: β-blocking activity in vitro, guinea pig right atria (rate response to isoproterenol)
- Format: cell-based
- RUN_CONDITIONS: vs isoproterenol, guinea pig right atria, 60 minute incubation, 37° C.; read-out: pA2 Atria (converted)
Entries and their measured Kb follow.
Provide only the numeric value, understood in nM.

Example cases with answers are listed next.
>>> value_measured("COc1ccc(CCNCC(O)COC(=O)c2ccc(C)cc2)cc1OC (centres unmarked) [Example XI]")
251
>>> value_measured("COc1ccc(CCNCC(O)COC(=O)c2ccccc2Cl)cc1OC (centres unmarked) [XIII]")
15.8
>>> value_measured("CCCOc1ccccc1C(=O)OCC(O)CNC(C)C (centres unmarked) [XXVII]")
251
>>> value_measured("CC(C)NCC(O)COC(=O)c1ccc(F)cc1 (centres unmarked) [Example XX]")
251

input: Form field: reported Kb of CC(C)(C)NCC(O)COC(=O)c1ccccc1 (centres unmarked) [XXXVII]
output: 158

input: Query (compound): CC(C)NCC(O)COC(=O)c1cccc2ccccc12 (centres unmarked) [XV] ; field requested: Kb
output: 251

input: Which value of Kb has been reported for COc1ccc(CCNCC(O)C(=O)Oc2ccccc2C)cc1OC (centres unmarked) [II] in the records?
output: 1260

input: Sample CC(C)NCC(O)COC(=O)c1ccc(O)cc1 (centres unmarked) [LVI] — what was its Kb?
output: 158

input: Returns the measured Kb for the input compound. Input: COc1ccc(C(=O)OCC(O)CNC(C)C)cc1 (centres unmarked) [XXIII]
output: 1000

input: GET /values?readout=Kb&item= CCC(C)(C)NCC(O)COC(=O)c1ccccc1F (centres unmarked) [LIII]
output: 158
